- Target entity: Hepatocyte growth factor receptor (Homo sapiens);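 further: each value is an averaged inhibition figure for MET, taken as the mean across measurements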
- Settings: at 1 µM
Kindly supply the reported inhibition values for the records listed here.
Field note: include the unit after the figure.

Prompt line: Recorded inhibition for NS(=O)(=O)c1ccc(Nc2cc(-c3cccc(O)c3)n[nH]2)cc1 , please?
Response line: 2.36%

Prompt line: # query: inhibition of entry COc1cc(Nc2nccc(-c3cnn4ncccc34)n2)cc(OC)c1
Response line: 14.4%

Prompt line: Query (compound): CN(c1ccc(NC(=O)Nc2ccc(OC(F)(F)F)cc2)cc1)c1ccnc(Nc2cccc(S(N)(=O)=O)c2)n1 ; field requested: inhibition
Response line: 64.9%

---

- Target entity: Tyrosine-protein kinase Fer (Homo sapiens)
- Settings: at 1 µM
- Description: GSK_PKIS: FER mean inhibition at 1 uM [Nanosyn]
Assay endpoint: inhibition (%)
Field: numeric (%). Do not append units.

Prompt line: Give its inhibition value. Item: COc1ccc(-c2nn3ncccc3c2-c2ccnc(Nc3cccc(C(F)(F)F)c3)n2)cc1
Response line: 1.69

Prompt line: Quick one: inhibition of COc1cccc(-n2nc(C)c3c(N/N=C(\C)c4ccncc4)ncnc32)c1 ?
Response line: 1.89

Prompt line: // returns reported inhibition for input CCS(=O)(=O)c1ccc(OC)c(Nc2nccc(N(C)c3ccc4c(C)n[nH]c4c3)n2)c1
Response line: 34.3

Prompt line: State the recorded inhibition for this entry: NS(=O)(=O)c1ccc(NC=C2C(=O)Nc3ccc4ncsc4c32)cc1
Response line: 27.7

Prompt line: What value of inhibition has been reported for the following compound? NS(=O)(=O)c1cccc(-c2cc3ccncc3cc2OCc2ccccc2)c1
Response line: 4.16

Prompt line: // inhibition lookup, key: COc1cc(/C=N/Nc2ncnc3c2cnn3C(C)C)ccc1O
Response line: 7.03

Prompt line: Requested read-out: inhibition. Entry: NS(=O)(=O)c1ccc(-c2cc3ccncc3cc2OCc2ccccc2)cc1
Response line: 8.24

Prompt line: Recorded inhibition of Nc1ccc(C#Cc2cncnc2Nc2ccc(OCc3cccc(F)c3)c(Cl)c2)cc1 , please.
Response line: 1.48

Prompt line: # query: inhibition of entry CN1CCN(C(=O)c2ccc(NC(=O)Nc3ccc(N(C)c4ccnc(Nc5ccc(CS(C)(=O)=O)cc5)n4)cc3)cc2)CC1
Response line: 63.9

Prompt line: State the recorded inhibition for this entry: CC(C)c1ccc2c(c1)NC(=O)/C2=N/Nc1ccc(S(N)(=O)=O)cc1
Response line: 1

Prompt line: Fill in: inhibition of COc1cc(Nc2nccc(-c3cnn4ncccc34)n2)cc(OC)c1 is ___
Response line: 58.6

---

- Test system: Epidermal growth factor receptor (Homo sapiens), P00533 [L858R,T790M]
- Sequence (P00533 whole entry T790M/L858R, looked up): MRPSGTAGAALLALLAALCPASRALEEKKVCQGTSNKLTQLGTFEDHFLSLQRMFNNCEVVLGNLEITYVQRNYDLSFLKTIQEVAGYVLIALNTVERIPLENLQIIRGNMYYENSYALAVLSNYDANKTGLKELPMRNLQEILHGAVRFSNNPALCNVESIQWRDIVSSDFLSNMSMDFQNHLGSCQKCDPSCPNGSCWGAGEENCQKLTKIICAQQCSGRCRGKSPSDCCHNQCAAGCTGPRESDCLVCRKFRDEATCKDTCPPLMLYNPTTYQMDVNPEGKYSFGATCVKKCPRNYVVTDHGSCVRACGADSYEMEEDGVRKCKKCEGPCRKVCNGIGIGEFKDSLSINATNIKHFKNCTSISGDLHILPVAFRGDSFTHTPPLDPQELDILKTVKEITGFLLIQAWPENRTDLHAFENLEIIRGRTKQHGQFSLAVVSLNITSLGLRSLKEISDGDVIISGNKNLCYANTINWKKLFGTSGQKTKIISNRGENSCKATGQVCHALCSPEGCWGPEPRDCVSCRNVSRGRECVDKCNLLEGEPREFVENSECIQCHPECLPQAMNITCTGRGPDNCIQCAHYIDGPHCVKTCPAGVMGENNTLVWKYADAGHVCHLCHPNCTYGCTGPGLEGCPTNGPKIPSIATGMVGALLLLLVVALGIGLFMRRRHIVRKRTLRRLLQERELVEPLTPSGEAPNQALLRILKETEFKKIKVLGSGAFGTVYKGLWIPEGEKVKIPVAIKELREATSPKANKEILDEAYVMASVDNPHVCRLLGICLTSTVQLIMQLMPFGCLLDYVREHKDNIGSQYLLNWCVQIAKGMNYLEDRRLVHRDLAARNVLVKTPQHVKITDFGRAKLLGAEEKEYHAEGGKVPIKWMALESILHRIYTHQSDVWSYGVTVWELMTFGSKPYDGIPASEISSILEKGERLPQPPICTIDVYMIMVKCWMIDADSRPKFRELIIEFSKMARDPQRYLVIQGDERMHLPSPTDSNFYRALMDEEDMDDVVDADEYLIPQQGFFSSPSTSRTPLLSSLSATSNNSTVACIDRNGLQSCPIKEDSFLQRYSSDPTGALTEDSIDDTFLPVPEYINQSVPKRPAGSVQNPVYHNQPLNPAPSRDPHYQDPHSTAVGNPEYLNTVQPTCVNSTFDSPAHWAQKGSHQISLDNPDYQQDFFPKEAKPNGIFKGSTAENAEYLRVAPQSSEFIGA
- Settings: at 0.1 µM
Assay endpoint: inhibition (%)
Write the answer as a number in %, unit excluded.

Prompt line: If you can, please state the reported inhibition value of FC(F)(F)c1ccc(-c2nn3ncccc3c2-c2ccnc(Nc3ccc4c(c3)OCCO4)n2)cc1 .
Response line: 0.49

Prompt line: Recorded inhibition of C[C@@H](Oc1cc(-n2cnc3ccc(OCC4CCN(C)CC4)cc32)sc1C(N)=O)c1ccccc1C(F)(F)F , please.
Response line: 1.72

Prompt line: What value of inhibition has been recorded for this entry: Cc1cc(O)cc(C)c1/C=C/c1cncc(C(=O)N(C)C)c1
Response line: -0.03

Prompt line: Param item = COc1ccc(-c2nn3ncccc3c2-c2ccnc(Nc3cccc(C(F)(F)F)c3)n2)cc1 ; retrieve measured inhibition.
Response line: -0.41

Prompt line: For the compound c1ccc(Cc2nc3ccc(Nc4ncnc5ccccc45)cc3[nH]2)cc1 , what inhibition is on record?
Response line: 1.06

Prompt line: // lookup inhibition for Cc1ccc(C(=O)NC2CC2)cc1-c1ccc2[nH]ncc2c1
Response line: -2.32

Prompt line: Dear colleague, I am looking for the recorded inhibition of the following compound: Nc1nccc(-c2c(-c3ccc(F)cc3)nn3cc(C(F)(F)F)ccc23)n1
Response line: -0.45

Prompt line: # query: inhibition of entry OCc1ccc(-c2nc(-c3ccccn3)c(-c3ccc4c(c3)OCO4)[nH]2)cc1
Response line: 3.54

Prompt line: Need inhibition, item CCS(=O)(=O)c1ccc(OC)c(Nc2nccc(N(C)c3ccc4c(C)n[nH]c4c3)n2)c1
Response line: 2.67

Prompt line: Please give the measured inhibition for this compound: N#Cc1cccc(Nc2nccc(-c3cnn4ncccc34)n2)c1
Response line: 0.25

Prompt line: Give its inhibition value. Item: COC(=O)Nc1nc2cc(Oc3ccc(NC(=O)Nc4cccc(Br)c4)cc3)ccc2[nH]1
Response line: -0.2

Prompt line: Look up inhibition: NC(=O)c1sc(-n2cnc3ccccc32)cc1OCc1ccccc1Br
Response line: 2.85

Prompt line: Return reported inhibition; argument: NS(=O)(=O)c1ccc(N/N=C2\C(=O)Nc3ccc(Cl)cc32)cc1
Response line: -0.89

Prompt line: Quick one: inhibition for CN(C)CCCn1c(-c2nonc2N)nc2cnccc21 ?
Response line: -0.67

Prompt line: Given the entry COC(=O)c1ccc2c(c1)C(=Cc1cc(Br)c(O)c(Br)c1)C(=O)N2 , report its measured inhibition.
Response line: -1.65

Prompt line: // query inhibition value for entry O=C1Nc2ccccc2/C1=C/Nc1ccc2[nH]c(=O)[nH]c2c1
Response line: 4.62

Prompt line: Value lookup for inhibition; key = Cc1ccc2c(-c3ccnc(Nc4ccc5c(c4)OCCO5)n3)c(-c3ccc(C(F)(F)F)cc3)nn2n1
Response line: 2.01

The origin of these recorded values is ChEMBL document CHEMBL1961873.
